- Method summary: Stability of the compound in human plasma assessed as parent compound remaining measured after 120 mins
- Format: ADME, cell-free
- Protocol conditions: read-out: Stabilty
Measure: remaining at 2 h

Input line: So what does the record say about remaining at 2 h for O=C(c1cncn1Cc1cc(Cl)ccc1Cl)N1CCN(C2CC2)c2ccccc21 ?
Output line: 105%

Input line: Can you check O=C(c1cncn1Cc1ccc(Cl)cc1Cl)N1CCN(C2CC2)c2ccccc21 next?
Output line: 104%

---

- Measured target: G-protein coupled bile acid receptor 1 (Homo sapiens)
- Method summary: Agonist activity at human TGR5 transfected in HEK293T cells assessed intracellular cAMP level at 40 uM by HTRF assay
- Format: functional, cell-based
- Protocol conditions: filed as agonist
Measure: Activity (%)
Respond numerically; units are % and should not be typed.

Cc1ccc(N(C)C(=O)c2cncn2[C@H](C)c2ccccc2)cc1 | 86.7
C[C@H](c1ccccc1)n1cncc1C(=O)N1CCN(c2ccccc2F)CC1 | 95.3

Input line: I have this molecule here, COc1ccc(N2CCN(C(=O)c3cncn3[C@H](C)c3ccccc3)CC2)cc1 , and I need its recorded Activity.
Output line: 89.7

Input line: Next entry: C[C@H](c1ccccc1)n1cncc1C(=O)N(C)c1ccc(F)cc1
Output line: 85.4

Input line: Subsequent entry: COc1ccccc1N1CCN(C(=O)c2cncn2[C@H](C)c2ccccc2)CC1
Output line: 49.2
